Source listed as PubChem BioAssay (NCATS).

Experiment: qHTS profiling for inhibitors of Plasmodium falciparum proliferation (AID 504749); note: nearly all actives have a fitted effect of over 60% in size;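 for activity, negative = inhibition: 0% = DMSO vehicle and full inhibition = artemisinin control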
Conditions: P. falciparum in erythrocytes, SYBR Green DNA, 72 h; at 28.7 µM (top of the series); parasite line A
Method: NIH National Institute of Allergy and Infectious Diseases [NIAID] NIH Chemical Genomics Center [NCGC] […] Because mature erythrocytes lack DNA, only Plasmodium-derived DNA is detected. NCGC Assay Protocol Summary: The SYBR Green viability assay was adapted from a method described previously (Plouffe et al., 2008). […] The following morning, fluorescence intensity at 485(14) nm excitation and 535(25) nm emission wavelengths was measured on an EnVision (Perkin Elmer) plate reader. […]
Records with an inconclusive call do not appear.
Below, each entry is listed with its recorded activity, negative = inhibition.
Write the number in % without appending the unit.

Below, each entry is followed by its recorded activity, negative = inhibition result.
- CC1=C(c2ccc(NN=C(C#N)C#N)cc2)NNC(=O)C1: -7.66
- Cc1ccc(Nc2ncccc2C(=O)O)cc1C: 6.4
- C/C=C1/NN(CCCN2CCN(c3cccc(Cl)c3)CC2)C(=O)N1CCOc1ccccc1: -8.67
- O=C1CC[C@H](C(=O)N[C@@H]2C[C@H]2c2ccccc2)N1: 10.5
- CC1=C(C/C=C(\C)CCCC(C)CCCC(C)CCCC(C)C)C(=O)c2ccccc2C1=O (configuration not stated): -26.3
- C[C@@H](O)[C@@H]1C(=O)N2C(C(=O)O)=C([C@H]3CCCO3)S[C@H]12: -3.21

Now, please, on to the next molecule.
Reported activity, negative = inhibition of `CCCC[C@H](O)c1ccccc1` : -2.26

---

experiment: Cell Viability - HUV-EC-C (AID 542); settings: HUV-EC-C endothelial cell viability, qHTS; series mostly up to 92.2 µM;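 note: cells exposed to compound for 40 hours; % is set by controls: 0 for no effect and ±100 for the full control effect; nearly all actives have a fitted effect of over 35% in size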
Records with an inconclusive call do not appear. Activity calls are given as the source filed them. The call rests on the fitted dose curve; in most records, active means well fitted cell-killing curve with a large enough effect; inconclusive means small, poorly fitted or top-dose-only effect, or effect the other way; inactive means flat fitted curve, though single readings scatter.
Assay Endpoint: outcome

* Cc1cccc(O)c1C | inactive
* O=[N+]([O-])c1cc([N+](=O)[O-])c2ccc(S(=O)(=O)O)cc2c1O | inactive
* c1ccc2c(c1)-c1cccc3c1c-2cc1ccccc13 | inactive

---

molecular target: Mitogen-activated protein kinase 10 (Mus musculus) (UniProt Q61831); experiment: JNK3 AlphaScreen Assay (AID 530); settings: JNK3 lysate, c-Jun phosphorylation; series mostly up to 57.1 µM;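 note: kinase came from lysate of stimulated human HepG2 cells; signal reports phosphorylation of biotinylated GST-cJun 1-79 at Ser73 with 10 µM ATP; % is set by controls: 0 for no effect and ±100 for the full control effect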
Results filed as inconclusive are left out. Activity calls are given as the source filed them. The call rests on the fitted dose curve; in most records, active means well fitted curve in either direction with a large enough effect (not every such curve was filed as active); inconclusive means small, poorly fitted or top-dose-only effect, or another doubt; inactive means flat fitted curve, though single readings scatter.
Assay Endpoint: activity change, negative = inhibition

* COC(=O)C1(CC(C)C)C=C2C(=C(c3ccccc3)C(=O)C2C)CN1 (stereo not drawn) | inactive
* COC(=O)[C@@]1(Cc2ccc(F)cc2)[C@@H]2C(=CC(=O)[C@H]2CC(=O)C(=O)N2CCCC2)CN1C(=O)c1ccccc1 | inactive
* C[C@@]1(C(NC(=O)Cc2ccccc2)c2ccc(-c3ccccc3)cc2)C[C@H]1C1CCCCC1 (stereo partly drawn) | inactive
* COc1ccccc1-c1oc2ccccc2c(=O)c1OC | inactive
* C[C@@H](C(=O)Nc1ccc2ccccc2c1)[C@H]1C[C@]1(C)[C@H](NC(=O)c1cnccn1)c1ccccc1 | inactive
* C[C@H](CO)NC(=O)[C@@H]1C[C@H]1[C@@H](NP(=O)(c1ccccc1)c1ccccc1)c1ccccc1 | inactive
* NC(=S)c1ccc[n+]([C@@H]2O[C@@H](COP(=O)([O-])OP(=O)(O)OC[C@@H]3O[C@@H](n4cnc5c(N)ncnc54)[C@@H](OP(=O)(O)O)[C@H]3O)[C@@H](O)[C@H]2O)c1 | inactive

# evaluate next
Entry `COc1cc2c(c(OC)c1OC)-c1ccc(OC)c(=O)cc1[C@H](NC(C)=O)CC2` , activity change, negative = inhibition reported as inactive

---

test system: 3D7; assay: qHTS profiling for inhibitors of Plasmodium falciparum proliferation (AID 504749); note: nearly all actives have a fitted effect of over 60% in size; conditions: P. falciparum in erythrocytes, SYBR Green DNA, 72 h; series mostly up to 28.7 µM
Records with an inconclusive call do not appear. Activity calls are given as the source filed them. Calls come from the whole dose curve; as a rule, active = well fitted inhibition curve with a large enough effect; inconclusive = small, poorly fitted or top-dose-only effect; inactive = flat fitted curve, though single readings scatter.
Hello, when you answer, please use one of the following outcomes: active, inactive

- CC(O)C(N)C(=O)O (stereo not given): inactive

Kindly provide the recorded test outcome for the following compound: `CC1=C(c2ccc(NN=C(C#N)C#N)cc2)NNC(=O)C1`
inactive

Please indicate how the test categorized `CCN(CC)C(=O)[C@@]1(c2ccccc2)C[C@@H]1CN` .
inactive

Recorded test outcome, item `C/C(=C(/CCOC(=O)C(C)C)SS/C(CCOC(=O)C(C)C)=C(\C)N(C=O)Cc1cnc(C)nc1N)N(C=O)Cc1cnc(C)nc1N`
inactive

Hi, sorry to bother you, what did the test record for C[C@]12C=CC(=O)N[C@@H]1CC[C@@H]1C2CC[C@]2(C)C(C(=O)Nc3cc(C(F)(F)F)ccc3C(F)(F)F)CC[C@@H]12 (stereo not given in full) ?
active

---

system: PC26; experiment: qHTS profiling for inhibitors of Plasmodium falciparum proliferation (AID 504749); note: nearly all actives have a fitted effect of over 60% in size; conditions: P. falciparum in erythrocytes, SYBR Green DNA, 72 h; series mostly up to 28.7 µM
Records with an inconclusive call do not appear. The source made the active and inactive calls. Calls follow the shape of the dose curve; as a rule, active = well fitted inhibition curve with a large enough effect; inconclusive = small, poorly fitted or top-dose-only effect; inactive = flat fitted curve, though single readings scatter.
Answer with one of the outcomes given here: True for active, False for inactive

Check out these entries, answers already filled in.
- C[S+](C)CC[C@H](N)C(=O)O: False
- CC(c1ncncc1F)[C@](O)(Cn1cncn1)c1ccc(F)cc1F (some centres undefined): False
- CC[C@@H](C)C(N)C(=O)O (some centres undefined): False

Outcome logged for COC(c1ccccc1)(c1ccccc1)C(Oc1nc(C)cc(C)n1)C(=O)O (centres undefined) in this assay:
False

What is the recorded call for this compound in the test? OCCOC[C@H]1O[C@H](OCCO)[C@H](OCCO)[C@@H](OCCO)[C@@H]1OCCO (tested in a mixture with another compound)
False

Please state the recorded outcome for this compound: `CCN(CC)C(=O)Nc1ccc(OC[C@H](O)CNC(C)(C)C)c(C(C)=O)c1`
False

Query: recorded result category for `Cc1cncc(C(=O)O)[n+]1[O-]` in this test
False

For `COc1ccc(C(=O)/C(Br)=C/C(=O)O)cc1` , what call appears in the results of this test?
False

What was the test verdict on NC(=O)C1CC2(NC(=O)NC2=O)c2cc(F)ccc2O1 (centres undefined) ?
False

Could you please tell me the result logged for `CC[C@@]1(O)C[C@H](O[C@H]2C[C@@H](N(C)C)[C@@H](O[C@H]3C[C@@H](O)[C@@H](O[C@H]4CCC(=O)[C@@H](C)O4)[C@@H](C)O3)[C@@H](C)O2)c2c(cc3c(c2O)C(=O)c2c(O)cccc2C3=O)[C@H]1C(=O)OC` in this assay?
True

Assay result, entry `CC1=C(c2ccc(NN=C(C#N)C#N)cc2)NNC(=O)C1` — outcome?
False

---

target: Nuclear receptor ROR-gamma (Homo sapiens) (UniProt P51449); experiment: qHTS assay for small molecule antagonists of the retinoid-related orphan receptor gamma (ROR-gamma) signaling pathway (AID 651802); settings: ROR-gamma antagonist cell reporter assay; series mostly up to 92.2 µM; note: nearly all actives have a fitted effect of over 60% in size
Sequence (P51449 whole entry, looked up): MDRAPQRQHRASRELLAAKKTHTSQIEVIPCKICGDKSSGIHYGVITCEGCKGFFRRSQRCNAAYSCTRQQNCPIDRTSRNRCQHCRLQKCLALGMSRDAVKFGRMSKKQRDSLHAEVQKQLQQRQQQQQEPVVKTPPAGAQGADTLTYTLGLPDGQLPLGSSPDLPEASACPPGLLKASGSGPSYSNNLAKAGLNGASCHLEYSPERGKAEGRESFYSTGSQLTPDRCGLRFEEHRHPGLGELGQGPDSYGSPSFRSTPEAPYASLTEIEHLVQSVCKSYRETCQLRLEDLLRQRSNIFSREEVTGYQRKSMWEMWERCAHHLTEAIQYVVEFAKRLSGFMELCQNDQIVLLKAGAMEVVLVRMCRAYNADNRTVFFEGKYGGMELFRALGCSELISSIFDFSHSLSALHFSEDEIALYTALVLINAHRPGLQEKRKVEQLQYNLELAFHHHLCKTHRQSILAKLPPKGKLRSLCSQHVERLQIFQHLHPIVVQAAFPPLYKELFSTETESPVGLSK
Inconclusive results are not listed. Activity calls are given as the source filed them. The call rests on the fitted dose curve; in most records, active means well fitted inhibition curve with a large enough effect; inconclusive means small, poorly fitted or top-dose-only effect; inactive means no such curve, though single readings can be large or run the other way.
Hi! Could you answer with just one of these? active, inactive

Worked cases, answers included:
* CN1[C@H]2CC(OC(=O)[C@H](CO)c3ccccc3)C[C@H]1[C@H]1O[C@H]12 (some centres undefined) | inactive
* O=C=Nc1ccc(Cc2ccc(N=C=O)cc2)cc1 | inactive
* Nc1ccc2cc3ccccc3cc2c1 | inactive
* CCCCCC/C(C=O)=C\c1ccccc1 | inactive
* C=C(C)c1ccccc1 | inactive

Just curious, what result did `O=C(OCC(COC(=O)c1ccccc1)(COC(=O)c1ccccc1)COC(=O)c1ccccc1)c1ccccc1` get here?
inactive

Recorded test outcome, item `Cc1cc(Nc2ccc(O)cc2)ccc1N`
active

Assay outcome for `O=Cc1ccc(Cl)c(Cl)c1` : what was it?
inactive

# fetch the recorded call for `Cc1cccc(O)c1C` here
inactive

---

Measured activity change, negative = inhibition of individual entries
experiment: NFAT Signaling Pathway (AID 444); details: Jurkat NFAT-bla M1, carbachol, beta-lactamase ratio, 5 h; at 17.2 µM (top of the series) unless noted;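 note: carbachol stimulus at about its EC50 of 1 µM final; % is set by controls: 0 for no effect and ±100 for the full control effect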
Inconclusive results are not listed. Activity calls are given as the source filed them. The call rests on the fitted dose curve; in most records, active means well fitted curve in either direction with a large enough effect (not every such curve was filed as active); inconclusive means small, poorly fitted or top-dose-only effect, or another doubt; inactive means flat fitted curve, though single readings scatter.

Guide cases for activity change, negative = inhibition, answers given:
- COC(=O)Sc1nc(N2CCOCC2)c2c(c1C#N)CC(C)(C)OC2: -7.69% (inactive)
- O=C(NCCN1CCOCC1)c1cc2n(n1)C(C(F)(F)F)CC(c1ccc(F)cc1)N2 (stereo not drawn): 0.228% (inactive)
- O=C(O)CCc1nn2cc(-c3ccccc3)nc2[nH]c1=O: -22.2% (inactive)
- COc1cc2nc(-c3ccccc3)nc(N3CCCC3)c2cc1OC: -11.3% (inactive)
- O=C1C(=O)N(Cc2cccnc2)C(c2ccccn2)/C1=C(/O)c1ccc(Br)cc1 (stereo not drawn): 15.2% (inactive)

Lookup result for COc1ccc(C2CC(C(F)(F)F)n3ncc(C(=O)NCC4CCCO4)c3N2)cc1OC (stereo not drawn) ; measured activity change, negative = inhibition: 3.91% (inactive)
